# Test system: MOLT-4
# Method: Induction of GSPT1 degradation in human MOLT-4 cells at 1 uM incubated for 5 hrs by quantitative mass spectrometry based proteomic analysis
# Format: cell-based
Calls of active or inactive are those of the source. No cut-off for these calls is given here.
Form entry, call: pick from 1 (yes) for active, 0 (no) for inactive

O=C1CCC(N2Cc3cc(-c4cc5ccccc5cn4)ccc3C2=O)C(=O)N1 (centres undefined): 1 (yes)
O=C1CCC(N2Cc3cc(-c4cnc5ccccc5c4)ccc3C2=O)C(=O)N1 (centres undefined): 0 (no)
O=C1CCC(N2Cc3cc(NC(=O)c4cc5ccccc5cn4)ccc3C2=O)C(=O)N1 (centres undefined): 0 (no)

Let's switch to this compound now.
**Q:** Check the results log: what was the call for O=C1CCC(N2Cc3cc(NC(=O)c4cnc5ccccc5c4)ccc3C2=O)C(=O)N1 (centres undefined) ?
**A:** 0 (no)

Values compiled from ChEMBL document CHEMBL6153096.
